target: T1, recombinant SARS-CoV-2 Spike RBD domain, Wuhan (SARS-CoV-2); experiment: ELISA on coated RBD
T1 construct: also called RBD Wuhan
Provide the reported Binding AUC of each item.
// no unit string in output, number only

Exercise: Please give the documented Binding AUC of SPK002M A4 antibody (antibody, human IgG1, kappa, V domains shown) VH: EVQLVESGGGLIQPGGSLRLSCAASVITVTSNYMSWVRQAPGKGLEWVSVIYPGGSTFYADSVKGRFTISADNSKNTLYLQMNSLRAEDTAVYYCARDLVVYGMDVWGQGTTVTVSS VL: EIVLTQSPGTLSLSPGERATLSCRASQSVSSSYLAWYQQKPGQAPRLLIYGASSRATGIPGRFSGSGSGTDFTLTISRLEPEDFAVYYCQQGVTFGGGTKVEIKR
Key: 34

Exercise: Using known records, supply Binding AUC for SPK002M A5 antibody (antibody, human IgG1, kappa, V domains shown) VH: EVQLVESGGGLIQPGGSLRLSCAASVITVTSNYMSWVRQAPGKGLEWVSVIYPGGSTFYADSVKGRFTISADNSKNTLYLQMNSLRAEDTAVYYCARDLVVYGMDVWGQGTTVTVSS VL: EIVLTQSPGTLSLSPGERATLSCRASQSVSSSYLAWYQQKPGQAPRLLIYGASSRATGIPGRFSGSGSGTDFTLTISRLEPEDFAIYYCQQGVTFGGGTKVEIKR
Key: 34

Exercise: Supply reported Binding AUC belonging to this binder: SPK002M A2 antibody (antibody, human IgG1, kappa, V domains shown) VH: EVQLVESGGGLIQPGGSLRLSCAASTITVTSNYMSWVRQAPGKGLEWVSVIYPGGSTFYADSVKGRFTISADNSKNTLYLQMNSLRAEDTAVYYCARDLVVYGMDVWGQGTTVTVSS VL: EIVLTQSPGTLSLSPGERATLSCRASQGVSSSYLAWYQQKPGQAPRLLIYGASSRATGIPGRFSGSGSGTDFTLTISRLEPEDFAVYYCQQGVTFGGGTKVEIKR
Key: 33

Hey, just so you know, these numbers are from patent US12281155.
